In this section we review reported pIC50 values for a set of compounds.
# Test system: 997537-175-T-J1-PDC complex spheroid viability
# testSummary: Anticancer human tumor 997537-175-T-J1-PDC patient-derived colon adenocarcinoma cell line growth inhibition [GQUAD]
# conditionDetails: curve of first compound; second compound 1 µM
pIC50: −log10 of the molar value.

C#Cc1c(F)ccc2cc(O)cc(-c3ncc4c(N5CC6CCC(C5)N6)nc(OCC56CCCN5CC(F)C6)nc4c3F)c12 (stereo unspecified) + Cc1[nH]c2ccc(F)cc2c1-c1nc2c3cccnc3c3ncccc3c2[nH]1; 5.89
Cc1[nH]c2ccccc2c1CCNCc1ccc(/C=C/C(=O)NO)cc1 + Cc1[nH]c2ccc(F)cc2c1-c1nc2c3cccnc3c3ncccc3c2[nH]1; < 6.50
CC(C)(O)C1CCC(Nc2ccc3ncc(-c4cccc(C(F)(F)F)c4)n3n2)CC1 (stereo unspecified) + Cc1cnc(CNC(=O)c2c(=O)c3ccc(N4CCCN(C)CC4)nc3n3c2sc2ccccc23)cn1; 5.76
CC(=O)O[C@H]1C(=O)[C@@]2(C)[C@H]([C@H](OC(=O)c3ccccc3)[C@]3(O)C[C@H](OC(=O)[C@H](O)[C@@H](NC(=O)c4ccccc4)c4ccccc4)C(C)=C1C3(C)C)[C@]1(OC(C)=O)CO[C@@H]1C[C@@H]2O + CN(C)c1ccc(Nc2c3ccc(NC(=O)CCN4CCCC4)cc3nc3cc(NC(=O)CCN4CCCC4)ccc23)cc1; 7.27
O=c1[nH]cc(F)c(=O)[nH]1 + CN(C)c1ccc(Nc2c3ccc(NC(=O)CCN4CCCC4)cc3nc3cc(NC(=O)CCN4CCCC4)ccc23)cc1; < 5.00
CCCS(=O)(=O)Nc1ccc(F)c(C(=O)c2c[nH]c3ncc(-c4ccc(Cl)cc4)cc23)c1F + Cc1[nH]c2ccc(F)cc2c1-c1nc2c3cccnc3c3ncccc3c2[nH]1; 5.72

So what pIC50 did CC(=O)O[C@H]1C(=O)[C@@]2(C)[C@H]([C@H](OC(=O)c3ccccc3)[C@]3(O)C[C@H](OC(=O)[C@H](O)[C@@H](NC(=O)c4ccccc4)c4ccccc4)C(C)=C1C3(C)C)[C@]1(OC(C)=O)CO[C@@H]1C[C@@H]2O + Cc1cnc(CNC(=O)c2c(=O)c3ccc(N4CCCN(C)CC4)nc3n3c2sc2ccccc23)cn1 get with 997537-175-T-J1-PDC complex spheroid viability?
< 5.00

Again, but for CC1COCCN1c1cc(-c2ccnn2C)c2ccnc(-c3ccn[nH]3)c2n1 (stereo unspecified) + CN(C)c1ccc(Nc2c3ccc(NC(=O)CCN4CCCC4)cc3nc3cc(NC(=O)CCN4CCCC4)ccc23)cc1
< 5.00

Thanks! And O=c1[nH]cc(F)c(=O)[nH]1 + Cc1[nH]c2ccc(F)cc2c1-c1nc2c3cccnc3c3ncccc3c2[nH]1 ?
< 5.00

Then this compound: Cc1cccc(N(C)C(=O)C2C(O)CCN2c2nc(C)cc(C(F)(F)F)c2C#N)c1 (stereo unspecified) + CN(C)c1ccc(Nc2c3ccc(NC(=O)CCN4CCCC4)cc3nc3cc(NC(=O)CCN4CCCC4)ccc23)cc1
< 5.00

# iterate: O=C(c1cc(Cc2n[nH]c(=O)c3ccccc23)ccc1F)N1CCN(C(=O)C2CC2)CC1 + CN(C)c1ccc(Nc2c3ccc(NC(=O)CCN4CCCC4)cc3nc3cc(NC(=O)CCN4CCCC4)ccc23)cc1
< 5.00

---

Listed compounds paired with reported viability, T/C
# Test system: 997537-175-T-J1-PDC complex spheroid viability
# testSummary: Anticancer human tumor 997537-175-T-J1-PDC cell line growth inhibition [GQUAD];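 also: spheroids exposed to the agents for 7 days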;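 as to viability, T/C: 100% = DMSO vehicle control viability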
# conditionDetails: second compound 0.1 µM; first compound 3.16 µM; stronger effect = lower value
Form entry: value (%) — number only.

Consider the following illustrative entries.
O=C(c1cc(Cc2n[nH]c(=O)c3ccccc23)ccc1F)N1CCN(C(=O)C2CC2)CC1 + CN(C)c1ccc(Nc2c3ccc(NC(=O)CCN4CCCC4)cc3nc3cc(NC(=O)CCN4CCCC4)ccc23)cc1; 91.4
Cc1cccc(N(C)C(=O)C2C(O)CCN2c2nc(C)cc(C(F)(F)F)c2C#N)c1 (stereo unspecified) + CN(C)c1ccc(Nc2c3ccc(NC(=O)CCN4CCCC4)cc3nc3cc(NC(=O)CCN4CCCC4)ccc23)cc1; 103
O=c1[nH]cc(F)c(=O)[nH]1 + CN(C)c1ccc(Nc2c3ccc(NC(=O)CCN4CCCC4)cc3nc3cc(NC(=O)CCN4CCCC4)ccc23)cc1; 99.8

Name the reported viability, T/C value associated with the compound CC1COCCN1c1cc(C2(S(C)(=N)=O)CC2)nc(-c2ccnc3[nH]ccc23)n1 (stereo unspecified) + CN(C)c1ccc(Nc2c3ccc(NC(=O)CCN4CCCC4)cc3nc3cc(NC(=O)CCN4CCCC4)ccc23)cc1
48.6

Input C=CCn1c(=O)c2cnc(Nc3ccc(N4CCN(C)CC4)cc3)nc2n1-c1cccc(C(C)(C)O)n1 + Cc1[nH]c2ccc(F)cc2c1-c1nc2c3cccnc3c3ncccc3c2[nH]1
93.6

Another compound to check: COc1ccc([C@@H](O)c2cc(-c3ncnc4cc(N5CCOCC5)ccc34)c(F)cc2Cl)nn1 + Cc1cnc(CNC(=O)c2c(=O)c3ccc(N4CCCN(C)CC4)nc3n3c2sc2ccccc23)cn1
77.2

One more compound: CC1COCCN1c1cc(C2(O)CC3CCC(C2)O3)c2cnn(-c3ccn[nH]3)c2n1 (stereo unspecified) + CN(C)c1ccc(Nc2c3ccc(NC(=O)CCN4CCCC4)cc3nc3cc(NC(=O)CCN4CCCC4)ccc23)cc1
43.8

Let us now turn to O=C(NO)c1cnc(N2CCN(S(=O)(=O)c3ccc4ccccc4c3)CC2)nc1 + Cc1[nH]c2ccc(F)cc2c1-c1nc2c3cccnc3c3ncccc3c2[nH]1
20.9

Here is the next compound: C=CC(=O)N1CCN(c2nc(=O)n(-c3c(C)ccnc3C(C)C)c3nc(-c4c(O)cccc4F)c(F)cc23)C(C)C1 (stereo unspecified) + CN(C)c1ccc(Nc2c3ccc(NC(=O)CCN4CCCC4)cc3nc3cc(NC(=O)CCN4CCCC4)ccc23)cc1
95.7

Same thing, different compound: CC(=O)O[C@H]1C(=O)[C@@]2(C)[C@H]([C@H](OC(=O)c3ccccc3)[C@]3(O)C[C@H](OC(=O)[C@H](O)[C@@H](NC(=O)c4ccccc4)c4ccccc4)C(C)=C1C3(C)C)[C@]1(OC(C)=O)CO[C@@H]1C[C@@H]2O + CN(C)c1ccc(Nc2c3ccc(NC(=O)CCN4CCCC4)cc3nc3cc(NC(=O)CCN4CCCC4)ccc23)cc1
30.7

---

# System: 997537-175-T-J1-PDC complex spheroid viability
# testSummary: Anticancer human tumor 997537-175-T-J1-PDC cell line growth inhibition [GQUAD];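 also: spheroids exposed to the agents for 7 days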;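 as to viability, T/C: 100% = DMSO vehicle control viability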
# conditionDetails: second compound 0.0316 µM; first compound 0.1 µM; stronger effect = lower value
Reported viability, T/C values for the following compounds.
Numeric only. Scale: %

Below, each entry is followed by its recorded viability, T/C result.
CC1COCCN1c1cc(-c2ccnn2C)c2ccnc(-c3ccn[nH]3)c2n1 (stereo not drawn) + Cc1cnc(CNC(=O)c2c(=O)c3ccc(N4CCCN(C)CC4)nc3n3c2sc2ccccc23)cn1; 54
O=C(c1cc(Cc2n[nH]c(=O)c3ccccc23)ccc1F)N1CCN(C(=O)C2CC2)CC1 + Cc1[nH]c2ccc(F)cc2c1-c1nc2c3cccnc3c3ncccc3c2[nH]1; 96.1

// next item, viability, T/C requested
# lookup: viability, T/C of CC(C)n1c(=O)n(C)c2cnc3cc(F)c(-c4ccc(OCCCN5CCCCC5)nc4)cc3c21 + Cc1[nH]c2ccc(F)cc2c1-c1nc2c3cccnc3c3ncccc3c2[nH]1
104

---

Property: viability, T/C; scope: individual compounds
# Test system: 997537-175-T-J1-PDC complex spheroid viability
# testSummary: Anticancer human tumor 997537-175-T-J1-PDC cell line growth inhibition [GQUAD];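 also: spheroids exposed to the agents for 7 days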;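 as to viability, T/C: 100% = DMSO vehicle control viability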
# conditionDetails: second compound 0.316 µM; first compound 3.16 µM; stronger effect = lower value
Output spec: scalar in %, unitless text.

CC1COCCN1c1cc(C2(O)CC3CCC(C2)O3)c2cnn(-c3ccn[nH]3)c2n1 (stereo not drawn) + Cc1cnc(CNC(=O)c2c(=O)c3ccc(N4CCCN(C)CC4)nc3n3c2sc2ccccc23)cn1; 43
CC(C)n1c(=O)n(C)c2cnc3cc(F)c(-c4ccc(OCCCN5CCCCC5)nc4)cc3c21 + Cc1cnc(CNC(=O)c2c(=O)c3ccc(N4CCCN(C)CC4)nc3n3c2sc2ccccc23)cn1; 108

Proceeding to the next compound to report its viability, T/C.
I have this compound here, CC1COCCN1c1cc(-c2ccnn2C)c2ccnc(-c3ccn[nH]3)c2n1 (stereo not drawn) + Cc1[nH]c2ccc(F)cc2c1-c1nc2c3cccnc3c3ncccc3c2[nH]1 , and I need its recorded viability, T/C.
36.4

---

# Test system: 997537-175-T-J1-PDC complex spheroid viability
# testSummary: Anticancer human tumor 997537-175-T-J1-PDC cell line growth inhibition [GQUAD];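 also: spheroids exposed to the agents for 7 days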;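 as to viability, T/C: 100% = DMSO vehicle control viability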
# conditionDetails: second compound 3.16 µM; first compound 0.000999 µM; stronger effect = lower value
assayEndpoint: viability, T/C

Cn1ncnc1[C@H]1c2n[nH]c(=O)c3cc(F)cc(c23)N[C@@H]1c1ccc(F)cc1 + Cc1[nH]c2ccc(F)cc2c1-c1nc2c3cccnc3c3ncccc3c2[nH]1; 84.7%
CC[C@@]1(O)C(=O)OCc2c1cc1n(c2=O)Cc2cc3c(CN(C)C)c(O)ccc3nc2-1 + Cc1[nH]c2ccc(F)cc2c1-c1nc2c3cccnc3c3ncccc3c2[nH]1; 51.4%

# query: viability, T/C of entry Cc1[nH]c2ccccc2c1CCNCc1ccc(/C=C/C(=O)NO)cc1 + CN(C)c1ccc(Nc2c3ccc(NC(=O)CCN4CCCC4)cc3nc3cc(NC(=O)CCN4CCCC4)ccc23)cc1
89.5%

Next record, please: Cn1ncnc1[C@H]1c2n[nH]c(=O)c3cc(F)cc(c23)N[C@@H]1c1ccc(F)cc1 + CN(C)c1ccc(Nc2c3ccc(NC(=O)CCN4CCCC4)cc3nc3cc(NC(=O)CCN4CCCC4)ccc23)cc1
69.4%

Likewise for CCc1c2c(nc3ccc(O)cc13)-c1cc3c(c(=O)n1C2)COC(=O)[C@]3(O)CC + Cc1cnc(CNC(=O)c2c(=O)c3ccc(N4CCCN(C)CC4)nc3n3c2sc2ccccc23)cn1 ?
91.8%

// same read-out, input: Cc1[nH]c2ccccc2c1CCNCc1ccc(/C=C/C(=O)NO)cc1 + Cc1cnc(CNC(=O)c2c(=O)c3ccc(N4CCCN(C)CC4)nc3n3c2sc2ccccc23)cn1
96%

Entry CC[C@@]1(O)C(=O)OCc2c1cc1n(c2=O)Cc2cc3c(CN(C)C)c(O)ccc3nc2-1 + CN(C)c1ccc(Nc2c3ccc(NC(=O)CCN4CCCC4)cc3nc3cc(NC(=O)CCN4CCCC4)ccc23)cc1 please
63.8%

Just for reference, PubChem BioAssay AID2060487 is where these values come from.
